- target under test: DLG1_3, Q12959
- Sequence (Q12959 457-571): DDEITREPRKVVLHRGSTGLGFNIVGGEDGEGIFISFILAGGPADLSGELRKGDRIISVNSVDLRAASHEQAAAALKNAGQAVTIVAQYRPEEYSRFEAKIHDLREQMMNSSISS
- experiment summary: holdup assay
- Design: key: below the threshold = too weak to quantify, mostly under pKd 3.1 to 4
- test settings: plain residues with an end cap or a label only (N-terminal biotin on a linker: ttds)
Attribute: pKd
Kindly provide the number alone.

{"columns": ["binder", "pKd"],
 "data": [
  ["QRPYRRESEI [KCNJ12, Q14500]", 4.08]
]}

Moving on to the next binder.
GET /values?readout=pKd&item= SHSSKGETAV [FZD7, O75084]
4.01
